Cited source for all entries: PubChem BioAssay AID1996

conditions: buffer; pH 7.4; 200.0 µM
// label = 1 (yes) if solubility kinetic is not less than 8 µg/mL, otherwise 0 (no)

Record COc1ccc(NS(=O)(=O)c2cccc3ccccc23)cc1 ; criterion: solubility kinetic no lower than 8 µg/mL. Met?
1 (yes)

Record COc1ccc(S(=O)(=O)NC(C)C(=O)NCc2ccncc2)cc1C (stereo unspecified) ; criterion: solubility kinetic no lower than 8 µg/mL. Met?
1 (yes)

Record O=[N+]([O-])c1cccc(P(=O)(O)c2cccc([N+](=O)[O-])c2)c1 ; criterion: solubility kinetic no lower than 8 µg/mL. Met?
1 (yes)

Record COc1ccc(CSC2=NCCN2)cc1Br ; criterion: solubility kinetic no lower than 8 µg/mL. Met?
1 (yes)

Record Cc1ccc(C)c(-c2cc(C(=O)NC3CC3)c3ccccc3n2)c1 ; criterion: solubility kinetic no lower than 8 µg/mL. Met?
1 (yes)

Record CCN(C(=O)COC(=O)c1ccc(O)cc1)c1cccc2ccccc12 ; criterion: solubility kinetic no lower than 8 µg/mL. Met?
1 (yes)

Record Cn1c(O)c(C(=Nc2ccc(F)cc2)c2ccccc2Cl)c(=O)n(C)c1=O ; criterion: solubility kinetic no lower than 8 µg/mL. Met?
0 (no)

Record Cc1nc2ccc(NS(=O)(=O)c3ccc(F)c(C)c3)cc2[nH]1 ; criterion: solubility kinetic no lower than 8 µg/mL. Met?
1 (yes)

Record O=C(O)Cn1cnc2c(oc3ccccc32)c1=O ; criterion: solubility kinetic no lower than 8 µg/mL. Met?
1 (yes)

Record CSc1nc(C)nc(C2CC2)c1C#N ; criterion: solubility kinetic no lower than 8 µg/mL. Met?
0 (no)

Record CC1(C(=O)N2CCOCC2)CCCCC1 ; criterion: solubility kinetic no lower than 8 µg/mL. Met?
1 (yes)

Record CCOC(=O)c1[nH]c(C)c(C(=O)OCc2ccc(C)cc2)c1C ; criterion: solubility kinetic no lower than 8 µg/mL. Met?
0 (no)

Record COCCNC(=O)COCc1cc(-c2ccc3c(c2)OCO3)on1 ; criterion: solubility kinetic no lower than 8 µg/mL. Met?
1 (yes)

Record Cc1onc(-c2ccccc2)c1C(=O)OCCOc1cccc(Cl)c1 ; criterion: solubility kinetic no lower than 8 µg/mL. Met?
0 (no)

Record CC1(C)CC(C(=O)Nc2ccccc2)C(=O)O1 (stereo unspecified) ; criterion: solubility kinetic no lower than 8 µg/mL. Met?
1 (yes)

Record O=C(O)C1CCCN1C(=O)NC1CCCCC1 (stereo unspecified) ; criterion: solubility kinetic no lower than 8 µg/mL. Met?
1 (yes)

Record CCn1c(SCC#N)nc2ccccc2c1=O ; criterion: solubility kinetic no lower than 8 µg/mL. Met?
1 (yes)

Record O=C(O)c1ccc(S(=O)(=O)NC2CCCCCC2)cc1 ; criterion: solubility kinetic no lower than 8 µg/mL. Met?
1 (yes)

Record COc1ccc(Nc2nc(Cl)c(C=O)s2)cc1 ; criterion: solubility kinetic no lower than 8 µg/mL. Met?
1 (yes)

Record CC(NCCC1(C(C)C)CCOC(C)(C)C1)c1cccs1 (stereo unspecified) ; criterion: solubility kinetic no lower than 8 µg/mL. Met?
1 (yes)

Record CCOC(=O)C1CCN(C(=O)Nc2cccc(OC)c2)CC1 ; criterion: solubility kinetic no lower than 8 µg/mL. Met?
1 (yes)

Record NS(=O)(=O)c1ccc(NC(=O)c2cc(=O)c3ccccc3o2)cc1 ; criterion: solubility kinetic no lower than 8 µg/mL. Met?
1 (yes)

Record Cc1nc(N)nc(COc2ccccc2)n1 ; criterion: solubility kinetic no lower than 8 µg/mL. Met?
1 (yes)

Record COc1cc(/C=C/c2nc3ccccc3c(=O)[nH]2)cc(Cl)c1O ; criterion: solubility kinetic no lower than 8 µg/mL. Met?
1 (yes)

Record COC(OC)c1ccc(C#N)c(SCc2ccc(C)cc2)n1 ; criterion: solubility kinetic no lower than 8 µg/mL. Met?
0 (no)

Record CCCCOc1cc(C(=O)NCCN(CC)CC)c2ccccc2n1.Cl ; criterion: solubility kinetic no lower than 8 µg/mL. Met?
1 (yes)

Record Cc1ccsc1C(=O)NCCc1ccco1 ; criterion: solubility kinetic no lower than 8 µg/mL. Met?
1 (yes)

Record COC(=O)c1ccncc1N ; criterion: solubility kinetic no lower than 8 µg/mL. Met?
1 (yes)

Record O=c1cc(CSc2ccccc2)[nH]c2ccccc12 ; criterion: solubility kinetic no lower than 8 µg/mL. Met?
1 (yes)

Record Cl.Oc1ccc(CC2(N3CCCC3)CCCCC2)cc1 ; criterion: solubility kinetic no lower than 8 µg/mL. Met?
1 (yes)

Record COC(=O)c1cc(OC)c(OC)cc1NC(=O)CSCc1c(C)noc1C ; criterion: solubility kinetic no lower than 8 µg/mL. Met?
1 (yes)

Record CC(=NCc1cccnc1)c1c(O)n(-c2ccc(Cl)cc2)c(=O)[nH]c1=O ; criterion: solubility kinetic no lower than 8 µg/mL. Met?
0 (no)

Record CC(=O)N[C@H](Cc1c[nH]c2ccccc12)C(=O)O ; criterion: solubility kinetic no lower than 8 µg/mL. Met?
1 (yes)

Record Cc1c(C(=O)N2CCN(S(=O)(=O)c3ccccc3)CC2)oc2ccc(Br)cc12 ; criterion: solubility kinetic no lower than 8 µg/mL. Met?
0 (no)

Record COCCCNC(=O)c1cc(C(=O)Cc2ccccc2)c[nH]1 ; criterion: solubility kinetic no lower than 8 µg/mL. Met?
1 (yes)

Record COc1ccccc1OCCC(=O)OCC(=O)NCc1ccc(Cl)cc1 ; criterion: solubility kinetic no lower than 8 µg/mL. Met?
0 (no)

Record CCOC(=O)c1sc(=NC(=O)c2ccc(OC(C)C)cc2)n(C)c1C ; criterion: solubility kinetic no lower than 8 µg/mL. Met?
0 (no)

Record COc1ccc(CCNC(=O)COC(=O)c2ccccn2)cc1 ; criterion: solubility kinetic no lower than 8 µg/mL. Met?
1 (yes)

Record Cc1ccc(C(=O)Nc2nccc(C)n2)cc1 ; criterion: solubility kinetic no lower than 8 µg/mL. Met?
1 (yes)

Record COC(=O)Cn1c(C(O)c2ccccc2)nc2ccccc21 (stereo unspecified) ; criterion: solubility kinetic no lower than 8 µg/mL. Met?
1 (yes)

Record CC1(C)C(=O)Nc2ccccc2N1C(=O)COC(=O)c1cc(Cl)cc(Cl)c1 ; criterion: solubility kinetic no lower than 8 µg/mL. Met?
0 (no)

Record Cc1csc(NC(=O)CCCC(=O)c2ccccc2)n1 ; criterion: solubility kinetic no lower than 8 µg/mL. Met?
1 (yes)

Record Cc1ccc(C(=O)OCC(=O)NC(C)C2CC3CCC2C3)cc1N (stereo unspecified) ; criterion: solubility kinetic no lower than 8 µg/mL. Met?
1 (yes)

Record FC(F)(F)c1ccc(NC(=S)NC2CCCCC2)cc1 ; criterion: solubility kinetic no lower than 8 µg/mL. Met?
0 (no)

###

Please provide measured solubility kinetic for the entries that follow.
conditions: buffer; pH 7.4; 200.0 µM

Please give the measured solubility kinetic for this molecule: O=C(O)c1cc2n(n1)C(C(F)(F)F)CC(C1CC1)N2 (stereo not drawn)
> 41.3 µg/mL

Please give the measured solubility kinetic for this molecule: CN(C(=O)c1ccc2ccccc2c1)c1ccccn1
> 39.3 µg/mL

Please give the measured solubility kinetic for this molecule: Cc1ccc(C(=O)NCC(=O)NCc2ccccc2F)s1
> 46 µg/mL

###

details: buffer; pH 7.4; 200.0 µM
Please provide measured solubility kinetic for the entries that follow.

Please give the measured solubility kinetic for this compound: NC(=O)/C=C/C(=O)Nc1ccc(Cl)cc1
> 0.0337 mg/mL

Please give the measured solubility kinetic for this compound: CN(CCc1ccccc1)C1CCCN(S(=O)(=O)N(C)C)C1 (centres undefined)
> 0.0488 mg/mL

Please give the measured solubility kinetic for this compound: Cc1ccc(S(=O)(=O)N2CC=C(C(=O)NCCC(C)C)CC2)cc1
0.0417 mg/mL

Please give the measured solubility kinetic for this compound: Cc1cc(NS(=O)(=O)c2ccc(NC(=O)/C=C/c3ccccc3)cc2)nc(C)n1
> 0.0613 mg/mL

###

conditions: buffer; pH 7.4; 200.0 µM
// label = True if solubility kinetic is not less than 30 µg/mL, otherwise False

Record CCN1C(=O)CC(NNC(=O)c2ccccc2)C1=O (stereo not given) ; criterion: solubility kinetic no lower than 30 µg/mL. Met?
True

Record CC(NC(=O)C(=S)N1CCN(C)CC1)c1ccccc1 (stereo not given) ; criterion: solubility kinetic no lower than 30 µg/mL. Met?
True

Record O=C(O)c1cccc(NC(=S)NC(=O)c2cncc(Br)c2)c1 ; criterion: solubility kinetic no lower than 30 µg/mL. Met?
True

Record Cc1ccc(C(=O)Nc2ccccc2N2CCCCC2)cc1 ; criterion: solubility kinetic no lower than 30 µg/mL. Met?
False

Record COc1cccc2cc(-c3nc4ccccc4[nH]3)c(=O)oc12 ; criterion: solubility kinetic no lower than 30 µg/mL. Met?
False

Record CCCCCOC(=O)NC1CCS(=O)(=O)C1 (stereo not given) ; criterion: solubility kinetic no lower than 30 µg/mL. Met?
True

Record O=C(c1cccc(Cl)c1)N1CCN(c2ncccn2)CC1 ; criterion: solubility kinetic no lower than 30 µg/mL. Met?
True

Record CCC(O)c1nc2ccccc2n1CCc1ccccc1 (stereo not given) ; criterion: solubility kinetic no lower than 30 µg/mL. Met?
False

Record O=[N+]([O-])c1ccc(N2CCc3ccccc3C2)nc1 ; criterion: solubility kinetic no lower than 30 µg/mL. Met?
False

Record S=C(NCCc1c[nH]c2ccccc12)NC1CC1 ; criterion: solubility kinetic no lower than 30 µg/mL. Met?
True

Record CC1CN(C(=O)c2ccc(-c3ccccc3Cl)o2)CC(C)O1 (stereo not given) ; criterion: solubility kinetic no lower than 30 µg/mL. Met?
True

Record O=C1CC2(CCN(C(=O)c3cccc(F)c3)CC2)Oc2ccccc21 ; criterion: solubility kinetic no lower than 30 µg/mL. Met?
True

Record COc1ccc(CC(=O)OCC(=O)NCc2ccc(C)cc2)cc1OC ; criterion: solubility kinetic no lower than 30 µg/mL. Met?
True

Record CC1CN(C(=S)NC(=O)c2ccccc2)CC(C)O1 (stereo not given) ; criterion: solubility kinetic no lower than 30 µg/mL. Met?
True

Record Cc1ccnc(NC(=O)COc2ccc(Cl)cc2)n1 ; criterion: solubility kinetic no lower than 30 µg/mL. Met?
False

Record CCOc1ccccc1NC(=S)NC(=O)CCc1ccccc1 ; criterion: solubility kinetic no lower than 30 µg/mL. Met?
False

Record CC(NC(=O)Nc1cccc([N+](=O)[O-])c1)c1ccc2c(c1)OCO2 (stereo not given) ; criterion: solubility kinetic no lower than 30 µg/mL. Met?
False

Record CCc1ccc(NC(=O)CSc2ccccn2)cc1 ; criterion: solubility kinetic no lower than 30 µg/mL. Met?
True

Record Cc1ccc(CNS(=O)(=O)c2ccc([N+](=O)[O-])cc2)cc1 ; criterion: solubility kinetic no lower than 30 µg/mL. Met?
False

Record Brc1cc2c(cc1CSc1ncccn1)OCO2 ; criterion: solubility kinetic no lower than 30 µg/mL. Met?
False

Record CC(C)(C)NCC(O)c1cc(O)cc(O)c1.O=S(=O)(O)O (stereo not given) ; criterion: solubility kinetic no lower than 30 µg/mL. Met?
True

Record Cc1cccnc1NC(=O)CCNC(=O)c1ccc(Cl)cc1 ; criterion: solubility kinetic no lower than 30 µg/mL. Met?
True

Record Cc1ccc(CCC(=O)Nc2ccccc2C(=O)O)o1 ; criterion: solubility kinetic no lower than 30 µg/mL. Met?
True

Record O=C(c1cccc(F)c1)N1CCCc2ccccc21 ; criterion: solubility kinetic no lower than 30 µg/mL. Met?
False

Record O=S(=O)(NCc1ccccc1)c1ccc(Br)s1 ; criterion: solubility kinetic no lower than 30 µg/mL. Met?
False

Record O=C(Nc1cc(C(F)(F)F)ccc1N1CCOCC1)C1CCCO1 (stereo not given) ; criterion: solubility kinetic no lower than 30 µg/mL. Met?
True

Record CC(C)(C)c1csc(NC(=O)C2=COCCO2)n1 ; criterion: solubility kinetic no lower than 30 µg/mL. Met?
True

Record O=C(NCCCNC(=O)c1cc(Cl)ccc1Cl)c1cnccn1 ; criterion: solubility kinetic no lower than 30 µg/mL. Met?
True

Record CCOc1ccc(NC(=S)NC23CN4CN(CN(C4)C2)C3)cc1 ; criterion: solubility kinetic no lower than 30 µg/mL. Met?
True

Record CC(C)Cc1ccc(S(=O)(=O)Nc2ccc3[nH]c(=O)[nH]c3c2)cc1 ; criterion: solubility kinetic no lower than 30 µg/mL. Met?
False

Record O=C(NCCNC(=O)c1cnccn1)c1cccc(Cl)c1 ; criterion: solubility kinetic no lower than 30 µg/mL. Met?
True

Record COC(=O)c1cc(C(=O)NC(C)C2CC3CCC2C3)cc([N+](=O)[O-])c1 (stereo not given) ; criterion: solubility kinetic no lower than 30 µg/mL. Met?
False

Record Fc1ccc(Br)cc1SCCc1ccncc1 ; criterion: solubility kinetic no lower than 30 µg/mL. Met?
False

Record O=C(NCc1ccc2c(c1)OCO2)c1ccccc1Cl ; criterion: solubility kinetic no lower than 30 µg/mL. Met?
True

Record O=C(NCc1ccco1)/C(=C\c1ccco1)NC(=O)c1ccco1 ; criterion: solubility kinetic no lower than 30 µg/mL. Met?
True

Record O=C(COC(=O)c1cccnc1Cl)Nc1cccc(S(=O)(=O)N2CCOCC2)c1 ; criterion: solubility kinetic no lower than 30 µg/mL. Met?
True

Record Cc1ccc(C)c(N2N=C(C(=O)O)CCC2=O)c1 ; criterion: solubility kinetic no lower than 30 µg/mL. Met?
True

Record CC(C)(C)c1ccc(C(=O)NC(=S)N2CCCCCC2)cc1 ; criterion: solubility kinetic no lower than 30 µg/mL. Met?
False

Record O=C(O)CCCc1ccc(N(CCCl)CCCl)cc1 ; criterion: solubility kinetic no lower than 30 µg/mL. Met?
True

Record COc1ccc2c(c1)-c1nc(/N=C/c3cccc(OC)c3O)sc1CC2 ; criterion: solubility kinetic no lower than 30 µg/mL. Met?
True

Record CCOc1ccc(C2Nc3ccccc3C(CC)(CC)O2)cc1 (stereo not given) ; criterion: solubility kinetic no lower than 30 µg/mL. Met?
False

Record CC(C)[C@H](NC(=O)c1ccccc1Cl)C(=O)OCC(=O)NCc1ccc2c(c1)OCO2 ; criterion: solubility kinetic no lower than 30 µg/mL. Met?
True

Record COc1cccc(N/C=C/C(=O)c2ccc(C)cc2)c1 ; criterion: solubility kinetic no lower than 30 µg/mL. Met?
False
